Listed here are molecules together with their documented log10(IC50).
- testSystem: human TLR7 (Homo sapiens, UniProt Q9NYK1)
- Sequence (Q9NYK1 27-1049): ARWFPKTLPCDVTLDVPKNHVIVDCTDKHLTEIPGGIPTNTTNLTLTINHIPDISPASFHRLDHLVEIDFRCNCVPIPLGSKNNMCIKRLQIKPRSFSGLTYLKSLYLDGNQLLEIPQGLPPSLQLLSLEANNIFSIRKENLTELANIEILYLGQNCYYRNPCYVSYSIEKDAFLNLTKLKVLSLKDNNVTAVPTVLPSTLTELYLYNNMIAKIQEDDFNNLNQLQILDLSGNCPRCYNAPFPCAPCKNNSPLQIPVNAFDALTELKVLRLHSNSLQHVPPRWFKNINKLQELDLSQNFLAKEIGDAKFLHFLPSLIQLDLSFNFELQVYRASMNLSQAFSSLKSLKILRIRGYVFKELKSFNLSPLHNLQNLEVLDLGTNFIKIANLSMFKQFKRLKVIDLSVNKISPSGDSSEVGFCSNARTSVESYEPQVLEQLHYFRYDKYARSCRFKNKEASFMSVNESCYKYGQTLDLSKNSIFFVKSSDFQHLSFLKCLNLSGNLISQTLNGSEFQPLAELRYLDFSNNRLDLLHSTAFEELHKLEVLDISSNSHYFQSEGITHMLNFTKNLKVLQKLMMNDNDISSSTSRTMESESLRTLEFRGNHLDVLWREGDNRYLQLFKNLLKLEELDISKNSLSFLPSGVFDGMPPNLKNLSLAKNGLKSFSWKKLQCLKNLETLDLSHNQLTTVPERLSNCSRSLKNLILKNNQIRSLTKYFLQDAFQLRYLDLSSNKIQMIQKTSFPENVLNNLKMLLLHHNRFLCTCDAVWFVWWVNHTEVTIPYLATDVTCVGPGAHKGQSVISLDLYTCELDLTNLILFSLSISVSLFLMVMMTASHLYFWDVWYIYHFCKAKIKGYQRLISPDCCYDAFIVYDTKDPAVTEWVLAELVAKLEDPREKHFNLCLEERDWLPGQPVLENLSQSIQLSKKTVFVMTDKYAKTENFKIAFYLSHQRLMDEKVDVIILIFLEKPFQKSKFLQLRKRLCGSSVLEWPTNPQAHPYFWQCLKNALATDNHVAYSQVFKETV
- runDescription: TLR7 inhibition reporter assay (HEK-Blue cells, SEAP reporter)
- assaySetup: HEK-Blue cells overexpressing human TLR7; stimulated with gardiquimod 7.5 μM; 22 hour incubation; SEAP readout
measurementType: log10(IC50) (log10 of the value in µM)

>>> df
                                   molecule                                testsystem  measurementtype  observedvalue
0  COc1ccc(-c2cn3c(n2)CCC(C2CCN(C4CCN(C(=O)C5CC5)CC4)CC2)C3)cc1OC (single isomer, unassigned) [Example 44]  human TLR7 (Homo sapiens, UniProt Q9NYK1)      log10(IC50)           1.65
1  CS(=O)(=O)c1ccc(-c2cn3ccc(C4CCN(C5CCN(C6CCOCC6)CC5)CC4)c(F)c3n2)cc1 [Example 133]  human TLR7 (Homo sapiens, UniProt Q9NYK1)      log10(IC50)           0.28
2  COc1ccc(-c2cn3cc(C4CCN(C5CCN(CC(C)C)CC5)CC4)cc(C)c3n2)cc1OC [Example 3]  human TLR7 (Homo sapiens, UniProt Q9NYK1)      log10(IC50)           0.26
3  COc1ccc(-c2cn3c(n2)CCC(C2CCN(C4CCN(C(C)C)CC4)CC2)C3)cc1OC (racemic) [Example 34]  human TLR7 (Homo sapiens, UniProt Q9NYK1)      log10(IC50)           1.08
4  CS(=O)(=O)c1ccc(-c2cn3cc(C4CCN(C5CC6CCC(C5)N6C5CCOCC5)CC4)cc(F)c3n2)cc1 (single isomer, unassigned) [Example 122]  human TLR7 (Homo sapiens, UniProt Q9NYK1)      log10(IC50)           0.11
5  COc1ccc(-c2cn3c(n2)CCC(C2CCN(C4CC5(C4)CN(CC(C)C)C5)CC2)C3)cc1OC (racemic) [Example 52]  human TLR7 (Homo sapiens, UniProt Q9NYK1)      log10(IC50)           1.26

Sourced from patent US12486267B2
